# TESTED_SYSTEM: Acetyl-coenzyme A synthetase, cytoplasmic (Homo sapiens, UniProt Q9NR19)
# Sequence (Q9NR19 whole entry): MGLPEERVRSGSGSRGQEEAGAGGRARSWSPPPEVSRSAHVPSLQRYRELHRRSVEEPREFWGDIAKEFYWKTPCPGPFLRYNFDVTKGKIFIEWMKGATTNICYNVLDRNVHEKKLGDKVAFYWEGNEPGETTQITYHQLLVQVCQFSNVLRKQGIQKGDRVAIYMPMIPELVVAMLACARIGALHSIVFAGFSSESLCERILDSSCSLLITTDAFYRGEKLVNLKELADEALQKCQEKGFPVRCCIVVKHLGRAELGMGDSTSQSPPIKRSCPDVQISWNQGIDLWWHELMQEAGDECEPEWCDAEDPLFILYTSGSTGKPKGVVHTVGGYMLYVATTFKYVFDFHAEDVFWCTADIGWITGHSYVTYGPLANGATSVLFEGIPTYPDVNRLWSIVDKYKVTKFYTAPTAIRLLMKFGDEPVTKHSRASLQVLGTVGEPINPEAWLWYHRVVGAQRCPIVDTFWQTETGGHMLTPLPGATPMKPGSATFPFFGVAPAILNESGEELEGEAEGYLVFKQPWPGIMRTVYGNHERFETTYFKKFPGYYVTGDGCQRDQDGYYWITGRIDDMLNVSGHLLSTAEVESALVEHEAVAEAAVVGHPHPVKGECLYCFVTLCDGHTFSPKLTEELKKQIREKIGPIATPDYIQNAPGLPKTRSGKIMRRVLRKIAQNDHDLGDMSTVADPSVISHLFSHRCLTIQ
# EXPERIMENT_DESCRIPTION: Inhibition of N-terminal 6x-histidine tagged human ACSS2 expressed in insect cells assessed as reduction in pyrophosphate production using CoA and ATP incubated for 30 mins by pyrophosphatase coupled enzymatic assay
pIC50: −log10 of the molar value.
ASSAY_METRIC: pIC50

// worked examples, pIC50 included
| COMPOUND | pIC50 |
| --- | --- |
| CCN1CCC[C@@H](NC(=O)c2ccc3nc(C(O)(c4ccccc4)c4ccccc4)n(CC)c3c2)C1 | 6.00 to 6.60 |
| CCn1c(C(O)(c2ccccc2)c2ccccc2)nc2ccc(C(=O)Nc3ccccc3)cc21 | 6.60 to 7.30 |
| CCn1c(C(O)(c2ccccc2)c2ccccc2)nc2ccc(C3(O)CCOC3)cc21 (configuration not stated) | < 6.00 |
| CCn1c(C(O)(c2ccccc2F)c2ccccc2F)nc2ccc(C(=O)N[C@@H]3CCC(=O)N(C)C3)cc21 | 6.60 to 7.30 |
| CCn1c(C(O)(c2ccccc2)c2ccccc2)nc2ccc(C(=O)N3CCC(O)CC3)cc21 | < 6.00 |
| CCn1c(C(O)(c2ccccc2)c2ccccc2)nc2ccc(C(=O)NC[C@H](O)CO)cc21 | 6.60 to 7.30 |

Okay, now this compound:
Ask: Output reported pIC50 of the compound CCn1c(C(O)(c2ccccc2)c2ccccc2)nc2cc(OCCO)ncc21 on Acetyl-coenzyme A synthetase, cytoplasmic (Homo sapiens, UniProt Q9NR19).
Reply: 6.60 to 7.30

* * *

// reported pIC50 for each item listed
# TESTED_SYSTEM: UniProt:Q9NR19
# EXPERIMENT_DESCRIPTION: Inhibition of N-terminal 6x-histidine tagged human ACSS2 expressed in insect cells assessed as reduction in pyrophosphate production using CoA and ATP incubated for 30 mins by pyrophosphatase coupled enzymatic assay
pIC50: −log10 of the molar value.

Ask: Consider the compound CCn1c(C(O)(c2ccccc2)c2ccccc2)nc2ccc(C3(O)CCCCC3)cc21 and give its recorded pIC50.
Reply: 6.00 to 6.60

Ask: Look up and report measured pIC50 for this entry: CCn1c(C(O)(c2ccccc2)c2ccccc2)nc2ccc(C(=O)NC3CC(F)(F)C3)cc21
Reply: 6.00 to 6.60

Ask: Determine from records and report pIC50 for CC(C)Cn1c(C(O)(c2ccccc2)c2ccccc2)nc2ccc(C(=O)NC[C@@H](C)O)cc21
Reply: 6.60 to 7.30

Ask: Return value of pIC50 for input C[C@@H](O)CNC(=O)c1ccc2nc(C(c3ccccc3)c3ccccc3)[nH]c2c1 , no commentary.
Reply: < 6.00

Ask: Provide one value: measured pIC50 of CCCc1ccc2nc(C(O)(c3ccccc3)c3ccccc3)n(CC)c2c1
Reply: < 6.00

Ask: Please supply the value of reported pIC50 for the item CCn1c(C(O)(c2ccccc2)c2ccccc2)nc2ccc(C(OC(C)=O)C(F)(F)COC(C)=O)cc21 (stereo not drawn)
Reply: 6.60 to 7.30

Ask: Look up and state reported pIC50 for CCn1c(C(O)(c2ccccc2)c2ccccc2)nc2ccc(C(=O)NCCN(C)C)cc21
Reply: 6.00 to 6.60

Ask: Tell me its pIC50 given CCn1c(C(O)(c2ccccc2)c2ccccc2)nc2ccc(COc3ccccc3)cc21 as the entry.
Reply: 6.00 to 6.60

Ask: Quick one: give measured pIC50 for CCn1c(C(O)(c2ccccc2)c2ccccc2)nc2ccc(C(=O)NC3CCC3)cc21
Reply: 6.00 to 6.60

Ask: Quickly give me recorded pIC50 for CCn1c(C(O)(c2ccccc2)c2ccccc2)nc2c(F)cc(C(=O)NC[C@@H](C)O)cc21
Reply: 6.60 to 7.30

Ask: Indicate the recorded pIC50 value for this compound: CCn1c(C(O)(c2ccccc2)c2ccccc2)nc2cccc(Cl)c21
Reply: < 6.00
